EC50 for assorted compounds
System: hMPV A2 TN/94-49
Assay: HMPV antiviral assay Method 2 (LLC-MK2 cells with CP-100-356, ATP-Lite)
Type: cell-based
Conditions: hMPV A2 TN/94-49, LLC-MK2 cells, 4 μM CP-100-356, Method 2

Observe how each entry below is paired with its result.
[[record]]
compound = "Cc1nc2c(OC3CC3)cc(C(=O)NC[C@@](O)(c3ccccc3)c3cc4c(c(-c5cc(Cl)c(F)cc5F)n3)OC[C@]4(C)C(N)=O)cc2s1 [Example 189]"
target_or_test_system = "hMPV A2 TN/94-49"
result = "< 0.2 µM"

[[record]]
compound = "[2H]c1nc2c(OC)cc(C(=O)NC[C@@](O)(c3ccccc3)c3cc4c(c(-c5cc(Cl)c(F)cc5F)n3)OC[C@]4(C)C(N)=O)cc2cc1Cl [Example 220]"
target_or_test_system = "hMPV A2 TN/94-49"
result = "< 0.2 µM"

[[record]]
compound = "COc1cc(C(=O)NC[C@@](O)(c2ccccc2)c2cc3c(c(-c4cc(Cl)ccc4F)n2)OC[C@]3(C)C(N)=O)cc2cc(C3CC3)nn12 [Example 146]"
target_or_test_system = "hMPV A2 TN/94-49"
result = "< 0.2 µM"

[[record]]
compound = "COc1cc(C(=O)NC[C@@](O)(c2ccccc2)c2cc3c(c(-c4cc(Cl)c(F)cc4F)n2)OC[C@]3(C)C(N)=O)cc(O)c1NC(=O)C1(F)CC1 [Example 242]"
target_or_test_system = "hMPV A2 TN/94-49"
result = "> 0.2 µM"


Need EC50 of C[C@]1(C(N)=O)COc2c1cc([C@@](O)(CNC(=O)c1ccc3nc(C4CC4)oc3c1)c1ccccc1)nc2-c1ccc2c(c1)OC(F)(F)O2 [Example 199] , thanks. > 0.2 µM

Need EC50 of COc1cc(C(=O)NC[C@](O)(c2cc3c(c(-c4ccc(F)c(C)c4Cl)n2)OC[C@]3(C)C(N)=O)C2CC2)cc2cn(C3CC3)nc12 [Example 69] , thanks. < 0.2 µM

Need EC50 of Cc1nc2c(OC(F)(F)F)cc(C(=O)NC[C@@](O)(c3ccccc3)c3cc4c(c(-c5cc(Cl)c(F)cc5F)n3)OC[C@]4(C)C(N)=O)cc2s1 [Example 188] , thanks. > 0.2 µM

Need EC50 of COc1cc(C(=O)NC[C@@](O)(c2ccccc2)c2cc3c(c(-c4cc(C(F)(F)F)ccc4F)n2)OC[C@]3(C)C(N)=O)cc2oc(C3CC3)nc12 [Example 332] , thanks. < 0.2 µM

Need EC50 of C[C@]1(C(N)=O)COc2c1cc([C@@](O)(CNC(=O)c1cc(OC3CC3)c3ncc(Cl)cc3c1)c1cccc(F)c1)nc2-c1cccc(Cl)c1Cl [Example 334] , thanks. < 0.2 µM

Need EC50 of COc1cc(C(=O)NC[C@@](O)(c2cccc(F)n2)c2cc3c(c(-c4cc(Cl)c(F)cc4F)n2)OC[C@]3(C)C(N)=O)cc2cn(C(F)F)nc12 [Example 205] , thanks. < 0.2 µM

Need EC50 of COc1cc(C(=O)NC[C@@](O)(c2cccc(C(C)O)c2)c2cc3c(c(-c4cccc(Cl)c4Cl)n2)OC[C@]3(C)C(N)=O)cc2cn(C3CC3)nc12 (stereo partly drawn) [Example 495] , thanks. > 0.2 µM

Need EC50 of COc1cc(C(=O)NC[C@@](O)(c2cccc(F)c2)c2cc3c(c(-c4cccc(Cl)c4Cl)n2)OC[C@]3(C)C(N)=O)cc2oc(C)nc12 [Example 293] , thanks. < 0.2 µM
